- Assayed Target: GPR55A (Homo sapiens, UniProt Q9Y2T6)
- Sequence (Q9Y2T6 whole entry): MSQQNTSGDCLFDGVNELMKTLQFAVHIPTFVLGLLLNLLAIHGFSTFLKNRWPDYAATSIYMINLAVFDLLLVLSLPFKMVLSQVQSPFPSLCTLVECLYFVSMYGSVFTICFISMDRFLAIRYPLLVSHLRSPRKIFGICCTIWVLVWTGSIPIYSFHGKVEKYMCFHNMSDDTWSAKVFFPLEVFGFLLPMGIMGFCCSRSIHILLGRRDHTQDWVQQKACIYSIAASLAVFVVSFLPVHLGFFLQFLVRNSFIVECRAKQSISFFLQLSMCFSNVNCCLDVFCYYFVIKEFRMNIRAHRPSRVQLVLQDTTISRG
- Experimental Protocol: GTPγS binding assay on membranes of GPR55A-transfected HEK293s cells
- Study Conditions: GTPγS binding, GPR55A membranes; NA = not active
pEC50: −log10 of the molar value.
Label rule, in plain words: pEC50 of 8 and up is Y, under 8 is N.

{"Compound": "C=C(C)[C@@H]1CCC(C)=C[C@H]1c1c(O)cc(O)cc1CCCCC", "Class Label": "N"}
{"Compound": "CCCCCCC(C)(C)c1cc(O)c2c(c1)OC(C)(C)[C@@H]1CC=C(CO)C[C@@H]21", "Class Label": "N"}
{"Compound": "CCCCC/C=C\\C/C=C\\C/C=C\\C/C=C\\CCCC(=O)OC(CO)CO", "Class Label": "Y"}
{"Compound": "CCCCCCCC/C=C\\CCCCCCCC(=O)NCCO [Oleylethanolamide]", "Class Label": "N"}
{"Compound": "CCCn1c(C)c(C(=O)c2cccc3ccccc23)c2ccccc21", "Class Label": "Y"}
{"Compound": "CCCCCCCCCCCCCCCC(=O)NCCO [Palmitoylethanolamide]", "Class Label": "Y"}
{"Compound": "CCCCC/C=C\\C/C=C\\C/C=C\\C/C=C\\CCCC(=O)NCCO [Anandamide]", "Class Label": "N"}

====

- Assayed Target: UniProt:Q9Y2T6
- Experimental Protocol: GTPγS binding assay on membranes of GPR55A-transfected HEK293s cells
- Study Conditions: GTPγS binding, GPR55A membranes; antagonist data in the presence of an EC80 concentration of HU210; read-out: IC50 measurement
pIC50: −log10 of the molar value.

{"Smiles Record": "C=C(C)[C@@H]1CCC(C)=C[C@H]1c1c(O)cc(CCCCC)cc1O", "pIC50": 6.45}

====

A collection of molecules and their measured EC50
- Assayed Target: GPR55A (Homo sapiens, UniProt Q9Y2T6)
- Experimental Protocol: GTPγS binding assay on membranes of GPR55A-transfected HEK293s cells
- Study Conditions: GTPγS binding, GPR55A membranes; NA = not active

{"Molecule": "CCCCC/C=C\\C/C=C\\C/C=C\\C/C=C\\CCCCOC(CO)CO [Noladin Ether]", "Unit Annotation": "nM", "EC50": 11.5}
{"Molecule": "CCCCCCC(C)(C)c1ccc([C@@H]2C[C@H](O)CC[C@H]2CCCO)c(O)c1 [CP55940]", "Unit Annotation": "nM", "EC50": 7.1}
{"Molecule": "CCCCCc1cc(O)c2c(c1)OC(C)(C)[C@@H]1CCC(C)=C[C@@H]21 [Δ9-THC, Δ9-tetrahydrocannbinol]", "Unit Annotation": "nM", "EC50": 8.9}
{"Molecule": "CCCCC/C=C\\C/C=C\\C/C=C\\C/C=C\\CCCC(=O)OCCN [Virodhamine]", "Unit Annotation": "nM", "EC50": 10.4}
